Target: Adenosine receptor A2b (Rattus norvegicus, UniProt P29276)
Sequence (P29276 whole entry): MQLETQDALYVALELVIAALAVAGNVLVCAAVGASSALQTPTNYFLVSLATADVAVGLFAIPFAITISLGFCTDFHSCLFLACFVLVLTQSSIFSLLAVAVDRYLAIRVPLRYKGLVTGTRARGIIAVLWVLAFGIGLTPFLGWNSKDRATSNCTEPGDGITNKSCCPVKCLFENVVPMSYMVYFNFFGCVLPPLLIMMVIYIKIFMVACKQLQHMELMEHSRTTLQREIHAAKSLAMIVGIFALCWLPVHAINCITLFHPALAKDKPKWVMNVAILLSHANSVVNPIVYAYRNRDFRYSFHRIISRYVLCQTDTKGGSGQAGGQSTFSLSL
For each record, write down the corresponding Ki.
One number for each entry, in µM.

Look over these answered cases.
Cn1c(=O)n(CCc2ccccc2)c(=O)c2[nH]cnc21 : 5.53
Cn1c(=O)n(Cc2ccccc2)c(=O)c2[nH]cnc21 : 10.2
Cn1c(=O)c2c(ncn2CCCl)n(C)c1=O [7-CHLOROETHYLTHEOPHYLLINE] : 5.39
Cn1c(=O)c2c(ncn2CCCCl)n(C)c1=O : 14.2
CCCn1c(=O)c2[nH]c(-c3ccc(OCC(=O)Nc4ccc(C#N)cc4)cc3)nc2n(CCC)c1=O : 0.0128

Per the records, this compound ( Cn1c(=O)c2c(ncn2CCCCCl)n(C)c1=O ) has Ki equal to 18.7
